biological target: Serine/threonine-protein kinase ULK1 (Homo sapiens) (UniProt O75385); test: Induction of human recombinant N-terminal GST tagged-ULK1 (1 to 649 residues) kinase activity expressed in baculovirus infected insect Sf9 cells at 100 nM using MBP as substrate after 60 mins by ADP-glo assay relative to control
Sequence (O75385 whole entry, the tested form may be a part): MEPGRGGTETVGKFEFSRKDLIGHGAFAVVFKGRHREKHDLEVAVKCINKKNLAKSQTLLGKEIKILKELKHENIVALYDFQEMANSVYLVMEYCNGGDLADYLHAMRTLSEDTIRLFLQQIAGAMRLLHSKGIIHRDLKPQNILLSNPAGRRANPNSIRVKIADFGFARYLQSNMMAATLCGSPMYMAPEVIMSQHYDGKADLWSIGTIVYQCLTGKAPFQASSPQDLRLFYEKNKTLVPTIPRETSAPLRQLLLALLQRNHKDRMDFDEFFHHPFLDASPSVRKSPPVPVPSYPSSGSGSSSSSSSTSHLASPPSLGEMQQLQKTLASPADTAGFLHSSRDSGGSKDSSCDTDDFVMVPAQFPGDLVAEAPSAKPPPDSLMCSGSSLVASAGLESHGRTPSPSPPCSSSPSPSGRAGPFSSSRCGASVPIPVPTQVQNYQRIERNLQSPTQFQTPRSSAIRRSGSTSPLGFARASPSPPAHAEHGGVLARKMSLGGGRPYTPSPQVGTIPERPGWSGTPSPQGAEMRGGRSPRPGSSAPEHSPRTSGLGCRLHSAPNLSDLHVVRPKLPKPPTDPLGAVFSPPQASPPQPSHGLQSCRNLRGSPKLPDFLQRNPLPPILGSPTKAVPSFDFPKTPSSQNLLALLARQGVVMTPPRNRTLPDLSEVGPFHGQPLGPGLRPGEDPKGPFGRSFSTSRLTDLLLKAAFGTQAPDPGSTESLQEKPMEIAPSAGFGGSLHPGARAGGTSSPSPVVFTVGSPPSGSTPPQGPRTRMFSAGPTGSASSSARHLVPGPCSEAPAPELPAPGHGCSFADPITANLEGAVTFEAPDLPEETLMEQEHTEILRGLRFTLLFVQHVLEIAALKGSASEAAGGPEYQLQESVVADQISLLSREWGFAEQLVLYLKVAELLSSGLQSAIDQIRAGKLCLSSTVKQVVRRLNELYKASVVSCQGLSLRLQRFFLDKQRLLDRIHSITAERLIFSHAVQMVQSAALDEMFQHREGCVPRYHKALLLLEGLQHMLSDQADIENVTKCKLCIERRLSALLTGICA
parameter: Activity (%)

Cc1ccccc1NC(=O)[C@H](NCCc1ccc(Cl)c(Cl)c1)c1ccccc1	153
Cc1ccc(NC(=O)N[C@@H](C(=O)N[C@H](C)c2ccccc2)c2ccccc2)cc1	148
COc1ccc(N2CCN(CC(OC(=O)c3ccc(F)cc3)c3ccccc3)CC2)cc1 (centres undefined)	168
O=C(Nc1cccc(Cl)c1)N[C@@H](C(=O)Nc1cccc(Br)c1)c1ccccc1	152
